Entry source: patent US20240173432A1

tested on: CTG repeat in the 3′ UTR of human DMPK gene; assay: Dual-cut screening: CTG repeat excision efficiency by loss-of-signal ddPCR; format: cell-based; conditions: sgRNA pair; primary DM1 patient myoblasts; 3 μM DNA-PKi Compound 6 for 48 hours
A collection of substances and their measured Excision efficiency (by ddPCR)

Below, each entry is followed by its recorded Excision efficiency (by ddPCR) result.
SluU64 + SluD48 (guide 1 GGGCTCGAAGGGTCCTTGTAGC; guide 2 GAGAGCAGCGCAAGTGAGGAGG; guide RNA; listed as DNA, chemistry not fully specified) | 80.84
SluU10 + SluD100 (guide 1 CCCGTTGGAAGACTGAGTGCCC; guide 2 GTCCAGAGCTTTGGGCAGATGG; guide RNA; listed as DNA, chemistry not fully specified) | 64.25
SluU06 + SluD73 (guide 1 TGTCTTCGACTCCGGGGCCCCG; guide 2 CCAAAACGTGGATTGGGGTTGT; guide RNA; listed as DNA, chemistry not fully specified) | 63.29
SluU63 + SluD34 (guide 1 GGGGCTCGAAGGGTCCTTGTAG; guide 2 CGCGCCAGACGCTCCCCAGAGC; guide RNA; listed as DNA, chemistry not fully specified) | 93.5

[Q] // query Excision efficiency (by ddPCR) value for entry SluU62 + SluD56 (guide 1 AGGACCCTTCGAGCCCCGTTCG; guide 2 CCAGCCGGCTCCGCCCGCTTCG; guide RNA; listed as DNA, chemistry not fully specified)
[A] 61.21

###

test system: CUG foci in primary DM1 patient myoblasts; test: Dual-cut screening: FISH staining of CUG RNA foci; type: cell-based, human; details: sgRNA pair; primary DM1 patient myoblasts; vehicle (DMSO)
A collection of substances and their measured % of CUG foci free nuclei (Vehicle)
Give just the number in %; leave the unit off.

Below, each entry is followed by its recorded % of CUG foci free nuclei (Vehicle) result.
SluU59 + SluD14 (guide 1 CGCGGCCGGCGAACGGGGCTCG; guide 2 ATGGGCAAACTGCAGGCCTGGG; guide RNA; listed as DNA, chemistry not fully specified) | 59.29
SluU10 + SluD18 (guide 1 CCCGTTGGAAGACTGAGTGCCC; guide 2 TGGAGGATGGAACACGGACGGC; guide RNA; listed as DNA, chemistry not fully specified) | 71.69
SluU10 + SluD32 (guide 1 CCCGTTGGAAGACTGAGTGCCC; guide 2 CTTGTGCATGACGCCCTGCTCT; guide RNA; listed as DNA, chemistry not fully specified) | 77.29
SluU64 + SluD68 (guide 1 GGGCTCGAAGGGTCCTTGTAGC; guide 2 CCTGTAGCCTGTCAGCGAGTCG; guide RNA; listed as DNA, chemistry not fully specified) | 74.94

Turning now to a further record.
[Q] // query % of CUG foci free nuclei (Vehicle) value for entry SluU64 + SluD06 (guide 1 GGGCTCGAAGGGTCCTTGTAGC; guide 2 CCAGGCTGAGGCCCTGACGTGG; guide RNA; listed as DNA, chemistry not fully specified)
[A] 67.21

###

system: CAG foci in primary DM1 patient myoblasts; test: Single-cut screening: CAG foci staining; format: cell-based, human; conditions: single sgRNA, vehicle
A collection of substances and their measured % of CAG foci positive nuclei (Vehicle)
Give just the number in %; leave the unit off.

GCCCCCTAGCggccggggaggg (guide RNA; as printed in the source, key not given here) [SluU42] | 0.86
ggggcTCGAAGGGTCCTTGTAG (as printed in the source, key not given here) [SluU63] | 3.29
CGCCGAAGCGGGCGGAGCCGGC (guide RNA; chemistry not fully specified) [SluD58] | 1.37

Turning now to a further record.
[Q] // query % of CAG foci positive nuclei (Vehicle) value for entry GCCCGGATCACAGGACTGGAGC (guide RNA; chemistry not fully specified) [SluU30]
[A] 0.67
